Documented growth inhibition across a set of compounds
- Test name: NCI Yeast Anticancer Drug Screen. Data for the rad50 strain (AID 155);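 also: 0% = growth of vehicle-only cultures of the same strain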
- Measurement setup: S. cerevisiae rad50 strain growth inhibition; at 50.0 µM; stronger effect = higher value
Compounds without any hit were thinned out: in the full panel of roughly 79,000, 15% have a hit.
Measured quantity: growth inhibition (%)

Clc1ccc(OCC(COc2ccc(Cl)cc2)(COc2ccc(Cl)cc2)COc2ccc(Cl)cc2)cc1
-0.75
CCOC(=O)C(C(=O)OCC)=C(C)C
-9.9
CCCCCCCCCCCCCC(=O)Oc1ccc2ccccc2c1
-4.05
O=C1C=C(c2ccccc2)C(O)(c2ccccc2)/C1=C/C=C/c1ccccc1 (centres undefined)
-3.55
CCN(CC)c1ccc(N=Nc2nc(Cl)c(/C=C3\C(=O)c4ccccc4C3=C(C#N)C#N)s2)c(NC(C)=O)c1
18
CNC1C(=O)C(C)C(O)(C(CC(C)C(O)/C=C/C=C/CNC(=O)C(C)(C)C(O)\C(C)=C/C=C\C=C\Cc2cnc(C)o2)OC)C12C(=O)OC2COC (centres undefined) (tested in a mixture with another compound)
2.6
CC(C)CCc1c(Cl)nc(Cl)nc1Cl
32.2
CCCSc1nnc(SCCC)c2[nH]cnc12
0.85
CCOc1ccc(NC(=O)CCCCCCCCC(=O)Nc2ccc(OCC)cc2)cc1
6.8
